target: T1, FLAG-tagged mouse latent TGF-beta 1 (mouse, UniProt P04202 34-390); assay: SPR (BIACORE), antibody captured on anti-human Fc, antigen as analyte, pH 7.4
T1 construct: Co-expressed with human furin; also called mouse latent TGF-beta 1 (SLC); mSLC
Each entry below lists one item and its recorded log10 of kon value.
Log10 applied to kon; unit prior to transform: M⁻¹ s⁻¹.

Below: 3 binders and their reported log10 of kon.
hT0947AE22-SG181 (antibody, human IgG1, kappa, V domains shown, Human IgG1; Heavy chain = VH + CH, light chain = VL + CL) VH: QVQLVESGGGVVQPGRSLRLSCAASGFHFSREAMNWIRQPPGKGLEWIGYIYTSGTTYRANWARGRFTISRDNSKNTLYLQMNSLRAEDTAVYYCARGWHIFGHHYWVMHFWGQGTLVTVSS VL: DIQMTQSPSSLSASVGDRVTITCQASQSISTYLAWYQQKPGQPPKLLIYAASTLESGVPSRFSGSGSGTDFTLTISSLQPEDFATYYCQSYSDGDSVIFGQGTKVEIKR | 5.81
hT0947AE23-SG181 (antibody, human IgG1, kappa, V domains shown, Human IgG1; Heavy chain = VH + CH, light chain = VL + CL) VH: QVQLVESGGGVVQPGRSLRLSCAASGFHFSREAMNWIRQPPGKGLEWIGYIYTSGTTYRANWARGRFTISRDNSKNTLYLQMNSLRAEDTAVYYCARGTHLFGHHYWVMHSWGQGTLVTVSS VL: DIQMTQSPSSLSASVGDRVTITCQASQSISTYLAWYQQKPGQPPKLLIYAASTLEYGVPSRFSGSGSGTDFTLTISSLQPEDFATYYCQSYSDGDSVVFGQGTKVEIKR | 5.65
hT0947AE24-SG181 (antibody, human IgG1, kappa, V domains shown, Human IgG1; Heavy chain = VH + CH, light chain = VL + CL) VH: QVQLVESGGGVVQPGRSLRLSCAASGFHFSSEAMNWIRQPPGKGLEWIGYIYTSGTTYRANWARGRFTISRDNSKNTLYLQMNSLRAEDTAVYYCARGWHIFGHHYWVMHFWGQGTLVTVSS VL: DIQMTQSPSSLSASVGDRVTITCQASQSISTYLAWYQQKPGQPPKLLIYAASTLEWGVPSRFSGSGSGTDFTLTISSLQPEDFATYYCQSYSDGDSVGFGQGTKVEIKR | 5.80

Q: Return reported log10 of kon; argument: hT0947AE25-SG181 (antibody, human IgG1, kappa, V domains shown, Human IgG1; Heavy chain = VH + CH, light chain = VL + CL) VH: QVQLVESGGGVVQPGRSLRLSCAASGFHFSNEAMNWIRQPPGKGLEWIGYIYTSGTTYRSNWARGRFTISRDNSKNTLYLQMNSLRAEDTAVYYCARGWHIFGHQYWVMHFWGQGTLVTVSS VL: DIQMTQSPSSLSASVGDRVTITCQASQSISTYEAWYQQKPGQPPKLLIYAASTLESGVPSRFSGSGSGTDFTLTISSLQPEDFATYYCQSYSDGDSVGFGQGTKVEIKR
Result: 6.90

Q: Would you mind telling me what log10 of kon value was observed for hT0947AE26-SG181 (antibody, human IgG1, kappa, V domains shown, Human IgG1; Heavy chain = VH + CH, light chain = VL + CL) VH: QVQLVESGGGVVQPGRSLRLSCAASGFHFSNEAMNWIRQPPGKGLEWIGYIYTSGTTYRSNWARGRFTISRDNSKNTLYLQMNSLRAEDTAVYYCARGWHIFGHQYWVMHFWGQGTLVTVSS VL: DIQMTQSPSSLSASVGDRVTITCQASQSISTYEAWYQQKPGQPPKLLIYAASTLESGVPSRFSGSGSGTDFTLTISSLQPEDFATYYCQSYSDGDSVKFGQGTKVEIKR ?
Result: 6.21
